So I've got a bunch of compounds here, and I need their TGI values.
System: SK-MEL-2 melanoma
ASSAY EXPLANATION: NCI tumour cell line growth inhibition, 48 h

Return value of TGI for input CC(C)CCCC(C)[C@H]1CCC(C2C[C@@H](O)[C@@H]3CC(O)[C@@H](O)C[C@]3(CO)C2=O)[C@]1(C)CCO (stereo partly drawn) , no commentary.
39.7 µM

Return value of TGI for input CCOC(=O)c1cc(-c2ccc(OC)cc2)c([N+](=O)[O-])[nH]1 , no commentary.
> 10 µM

Return value of TGI for input Nc1cc2c3c(cccc3c1)C(=O)N(CCN1CCCC1)C2=O , no commentary.
19.2 µM

Return value of TGI for input Cc1c(C)c2c(c(N)c1C#N)C(=O)N(N)C2=O , no commentary.
> 100 µM

Return value of TGI for input C/C(=C1\N=C(c2ccccc2)OC1=O)c1ccccc1 , no commentary.
> 100 µM

Return value of TGI for input COC1(CC[C@@H](C)COC2OC(CO)C(O)C(O)C2O)OC2C[C@H]3[C@@H]4CC[C@H]5C[C@@H](OC6OC(CO)C(OC7OC(CO)C(O)C(O)C7O)C(O)C6OC6OC(C)C(O)C(O)C6O)[C@H](O)C[C@]5(C)[C@H]4CC[C@]3(C)C2[C@@H]1C (stereo partly drawn) , no commentary.
3.9 µM

Return value of TGI for input ClC1=NN=C(c2c[nH]c3ccccc23)CC1NCc1ccccc1 (stereo not drawn) , no commentary.
> 100 µM

Return value of TGI for input CC(=O)NC1C(OCc2ccccc2)OC(CO)C(O)C1OC(C)C(=O)N[C@@H](C)C(=O)N[C@H](CCC(=O)NCCNCCNc1c2ccccc2nc2cccc([N+](=O)[O-])c12)C(N)=O (stereo partly drawn) , no commentary.
0.138 µM

* * *

Test system: SN12C renal
ASSAY EXPLANATION: NCI tumour cell line growth inhibition, 48 h
So I've got a bunch of compounds here, and I need their TGI values.

Return value of TGI for input CCOC(=O)c1c(N)sc2c1C(C(=O)OCC)CCCC2 (stereo unspecified) , no commentary.
> 100 µM

Return value of TGI for input CN(CCCCCl)P(=O)(OCc1ccc([N+](=O)[O-])o1)OCC1OC(n2ccc(N)nc2=O)C(O)C1O (stereo unspecified) , no commentary.
33.7 µM

Return value of TGI for input CC(=O)N1[C@H](C(=O)O)CS[C@H]1c1ccc(F)cc1 , no commentary.
> 100 µM

Return value of TGI for input O=c1[nH]c(=O)n(COC(CO)CO)cc1-c1ccccc1 , no commentary.
> 100 µM

Return value of TGI for input O=C1NC(=NCCc2ccc(Cl)cc2)S/C1=C\c1ccc2ncccc2c1 , no commentary.
> 25 µM

Return value of TGI for input N#CCCC(C=O)(CCC#N)CCC#N , no commentary.
> 100 µM

Return value of TGI for input CN1CCCC2[C@@H]3CCC4c5nonc5CC[C@]4(C)C3CC[C@@]21C (stereo partly specified) , no commentary.
> 100 µM

Return value of TGI for input COc1cc2c(cc1C)NC(=O)/C2=C/c1ccnc2ccccc12 , no commentary.
> 50 µM

Return value of TGI for input Clc1ccccc1C(Nc1cnccn1)Nc1cnccn1 , no commentary.
> 100 µM

Return value of TGI for input COC(=N)C1(C#N)NC(c2ccsc2)C(C#N)(C#N)NC1c1ccsc1 (stereo unspecified) , no commentary.
> 100 µM

Return value of TGI for input COC(=O)C1C=CCC2CCCCC21N1CCCC1 (stereo unspecified) , no commentary.
> 100 µM
